System: LG0567-F671-PDC KRAS tumor spheroid viability;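 also: drug exposure lasted seven days after spheroids formed for three days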
Protocol: Anticancer human tumor LG0567-F671-PDC patient-derived lung adenocarcinoma cell line growth inhibition [KRAS2]; active = viability on the fitted dose curve at most 10% of control; inactive = the rest
Condition Info: second compound 10 µM; first compound 1 µM; spheroids with HUVEC and MSC
Select the matching outcome among TRUE (active), FALSE (inactive)

Worked examples, 3 compounds total:
Compound	Subject Of Test	Classification
COc1cc(Nc2ncc3c(n2)-c2ccc(Cl)cc2C(c2c(F)cccc2OC)=NC3)ccc1C(=O)O + COc1cc2nc(C)nc(NC(C)c3cc(N)cc(C(F)(F)F)c3)c2cc1OC1CCOC1	LG0567-F671-PDC KRAS tumor spheroid viability	FALSE
CC1COCCN1c1cc(-c2ccnn2C)c2ccnc(-c3ccn[nH]3)c2n1 (stereo unspecified) + CNCc1ccccc1-c1csc(C(C)Nc2nc(C)nc3cc(OC)c(OC)cc23)c1	LG0567-F671-PDC KRAS tumor spheroid viability	TRUE
COc1cc2nccc(Oc3ccc(NC(=O)C4(C(=O)Nc5ccc(F)cc5)CC4)cc3)c2cc1OC + CNCc1ccccc1-c1csc(C(C)Nc2nc(C)nc3cc(OC)c(OC)cc23)c1	LG0567-F671-PDC KRAS tumor spheroid viability	TRUE

So what was the verdict on CCN1CCN(Cc2ccc(Nc3ncc(F)c(-c4cc(F)c5nc(C)n(C(C)C)c5c4)n3)nc2)CC1 + CC1OCC2(CCN(c3cnc(Sc4ccnc(N)c4Cl)c(N)n3)CC2)C1N in this test?
TRUE

Please share the test call associated with CC(C)NCC(C(=O)N1CCN(c2ncnc3c2C(C)CC3O)CC1)c1ccc(Cl)cc1 (stereo unspecified) + COc1cc2nc(C)nc(NC(C)c3cc(N)cc(C(F)(F)F)c3)c2cc1OC1CCOC1 .
TRUE

Called result for COc1cc2nccc(Oc3ccc(NC(=O)C4(C(=O)Nc5ccc(F)cc5)CC4)cc3)c2cc1OC + CC1OCC2(CCN(c3cnc(Sc4ccnc(N)c4Cl)c(N)n3)CC2)C1N
FALSE
